Consider the following IC50 data for Tyrosine-protein kinase JAK2 (Homo sapiens, UniProt O60674), collected from several reports.
property: IC50 (µM)

{"molecule": "C[C@@H](Nc1nc(-c2cccc(N(C)C)c2)cnc1N)c1ccccc1", "property": "IC50", "readoutQualifier": "=", "experimentalValue": 0.53}
{"molecule": "CNC(=O)c1cnc(Nc2ccc(C(=O)NC3CCC(Nc4ccc5c(c4)C(=O)N(C4CCC(=O)NC4=O)C5=O)CC3)cn2)cc1Nc1cccc(-c2ncc(F)cn2)c1OC (stereo not given)", "property": "IC50", "readoutQualifier": ">", "experimentalValue": 10}
{"molecule": "CCS(=O)(=O)N1CC(CC#N)C1n1cc(-c2ncnc3[nH]ccc23)cn1 (stereo not given)", "property": "IC50", "readoutQualifier": "=", "experimentalValue": 0.0057}
{"molecule": "CC(=O)Nc1cccc(-c2cnc(N)c(NC(C)c3ccccc3)n2)c1 (racemic)", "property": "IC50", "readoutQualifier": "=", "experimentalValue": 0.361}
{"molecule": "CC(=O)Nc1cccc(-c2cnc(N)c(N[C@H](C)c3ccccc3)n2)c1", "property": "IC50", "readoutQualifier": "=", "experimentalValue": 0.177}
